# testedSystem: phosphorylated ERBB2 (pERBB2) (Homo sapiens, UniProt P04626)
# Construct: endogenous in cells
# Sequence (P04626 23-1255): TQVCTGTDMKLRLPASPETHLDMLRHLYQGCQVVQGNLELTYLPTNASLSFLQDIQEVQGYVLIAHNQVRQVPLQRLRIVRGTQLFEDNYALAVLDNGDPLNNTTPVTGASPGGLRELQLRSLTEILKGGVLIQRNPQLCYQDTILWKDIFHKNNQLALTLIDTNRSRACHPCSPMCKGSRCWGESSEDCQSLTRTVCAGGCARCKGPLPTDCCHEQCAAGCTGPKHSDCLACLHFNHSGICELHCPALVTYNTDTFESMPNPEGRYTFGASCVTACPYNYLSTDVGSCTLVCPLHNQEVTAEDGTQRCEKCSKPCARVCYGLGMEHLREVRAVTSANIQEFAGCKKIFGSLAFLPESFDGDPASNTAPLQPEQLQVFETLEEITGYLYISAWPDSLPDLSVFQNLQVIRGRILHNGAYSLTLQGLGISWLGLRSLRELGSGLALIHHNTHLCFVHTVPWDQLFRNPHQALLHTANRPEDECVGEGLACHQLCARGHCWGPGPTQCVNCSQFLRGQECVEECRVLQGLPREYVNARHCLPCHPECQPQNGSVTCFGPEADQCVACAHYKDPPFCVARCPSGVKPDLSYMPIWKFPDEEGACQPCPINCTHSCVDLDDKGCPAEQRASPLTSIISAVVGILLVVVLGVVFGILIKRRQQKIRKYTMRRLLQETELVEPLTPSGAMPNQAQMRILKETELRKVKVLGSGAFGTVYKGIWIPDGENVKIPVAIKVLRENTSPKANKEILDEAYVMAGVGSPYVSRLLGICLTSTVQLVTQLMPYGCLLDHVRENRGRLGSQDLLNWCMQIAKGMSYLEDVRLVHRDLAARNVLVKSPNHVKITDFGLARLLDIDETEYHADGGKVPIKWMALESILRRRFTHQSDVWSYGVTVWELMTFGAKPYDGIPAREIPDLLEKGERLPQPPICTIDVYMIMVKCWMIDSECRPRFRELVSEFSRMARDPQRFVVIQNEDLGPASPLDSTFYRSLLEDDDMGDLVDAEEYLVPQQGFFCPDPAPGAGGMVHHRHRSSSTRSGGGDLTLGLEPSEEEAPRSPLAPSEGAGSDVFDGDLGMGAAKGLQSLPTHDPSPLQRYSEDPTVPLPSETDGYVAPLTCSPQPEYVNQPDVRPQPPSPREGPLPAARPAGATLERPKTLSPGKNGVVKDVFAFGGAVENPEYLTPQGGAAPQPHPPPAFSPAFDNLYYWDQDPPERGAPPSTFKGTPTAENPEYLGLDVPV
# protocolDescription: Detection of phosphorylated ERBB2 (pERBB2) by ELISA in BT-474 cells
# condition: four hours incubation
pIC50: −log10 of the molar value.
attributeMeasured: pIC50

Reference set, count: 10
C=C1CCN(c2cc3c(Nc4ccc(Oc5ccn6ncnc6c5)c(Cl)c4)ncnc3cc2OCCN(C)C)C1=O [Compound 25]
5.92
Cc1cc(Nc2ncnc3cnc(N4CC(C)/C(=C\CN(C)C)C4=O)cc23)c(F)cc1Oc1ccc2c(c1)nnn2C (single isomer, unassigned) [Example S115, Enantiomer #2]
6.56
C=C1C(=O)N(c2cc3c(Nc4ccc(Oc5ccn6ncnc6c5)c(C)c4)ncnc3cn2)C2CC12 (single isomer, unassigned; enantiomer 2) [Example S40, Enantiomer # 2]
7.45
C=C1C(=O)N(c2ccc3ncnc(Nc4ccc(Oc5ccn6ncnc6c5)c(C)c4)c3c2)CC1CO (stereo not drawn) [Compound 29]
8.23
Cc1cc(Nc2ncnc3cnc(N4CC/C(=C\CN(C)C)C4=O)cc23)ccc1Oc1ccc2c(c1)nnn2C [Compound 101]
7.65
Cc1cc(Nc2ncnc3ccc(N4CC/C(=C\CN(C)C)C4=O)nc23)ccc1Oc1ccc2nccnc2c1 [Compound 61]
6.88
CC1CN(c2ccc3ncnc(Nc4ccc(Oc5ccn6ncnc6c5)c(F)c4)c3n2)C(=O)/C1=C/CN(C)C (single isomer, unassigned) [Example S127, Enantiomer #2]
6.84
C=C1C(=O)N(c2ccc3ncnc(Nc4ccc(Oc5ccn6ncnc6c5)c(C)c4)c3c2)C[C@@H]1C [Compound 19]
7.60
C=C1CCN(c2ccc3ncnc(Nc4ccc(Sc5ccn6ncnc6c5)c(C)c4)c3c2)C1=O [Compound 13]
7.90
Cc1ccc(Oc2ccc(Nc3ncnc4ccc(N5CC/C(=C\CN(C)C)C5=O)nc34)cc2C)cn1 [Compound 49]
7.86

[A] C=C1C(=O)N(c2cc3c(Nc4ccc(Oc5ccn6ncnc6c5)c(C)c4)ncnc3cn2)C[C@H]1C [Compound 32]
[B] Cc1cc(Nc2ncnc3ccc(N4CC/C(=C\CN(C)C)C4=O)nc23)ccc1Oc1cncc(F)c1 [Compound 130]
Looking at recorded values for pIC50, does A or B come in lower? Identify your selection by its label. A

[A] CNC/C=C1\CCN(c2ccc3ncnc(Nc4ccc(Oc5ccc6c(c5)ncn6C)c(C)c4)c3n2)C1=O [Compound 100, formic acid]
[B] CC1CN(c2cc3c(Nc4cc(F)c(Oc5ccc6c(c5)nnn6C)cc4F)ncnc3cn2)C(=O)/C1=C/CN(C)C (single isomer, unassigned) [Example S125, Enantiomer #1]
[C] Cc1cc(Nc2ncnc3ccc(N4CC/C(=C\[C@H](C)N(C)C)C4=O)nc23)ccc1Oc1ccn2ncnc2c1 [Compound 113]
// sort entries: pIC50, high to low Labels, requested order. A, C, B
(A: 7.24, C: 6.49, B: 6.15)

----------
# testedSystem: phosphorylated ERBB2 (pERBB2) (Homo sapiens, UniProt P04626)
# Construct: endogenous in cells
# protocolDescription: Detection of phosphorylated ERBB2 (pERBB2) by ELISA in BT-474 cells
# condition: four hours incubation
attributeMeasured: IC50 (nM)

C=C1C(=O)N(c2ccc3ncnc(Nc4ccc(Oc5ccc6c(c5)ncn6C)c(C)c4)c3c2)C2CC12 (single isomer, unassigned) [Example S33, Enantiomer # 1]
23.2

[I] Cc1cc(Nc2ncnc3ccc(N4CC/C(=C\CN(C)C)C4=O)nc23)ccc1Oc1ccc2c(c1)ncn2C [Compound 38]
[II] Cc1cc(Nc2ncnc3ccc(N4CC(C)/C(=C\CN(C)C)C4=O)nc23)ccc1Oc1ccc2c(c1)ncn2C (single isomer, unassigned; enantiomer 2) [Example S58, Enantiomer # 2]
Field: entry with larger IC50 (options I / II ). State the label of the item chosen. II
(II: 44.2 nM, I: 29.3 nM)

----------
# testedSystem: phosphorylated ERBB2 (pERBB2) (Homo sapiens)
# Construct: endogenous in cells
# protocolDescription: Detection of phosphorylated ERBB2 (pERBB2) by ELISA in BT-474 cells
# condition: four hours incubation
attributeMeasured: IC50 (nM)

Example entries and their recorded answers appear below.
Cc1cc(Nc2ncnc3ccc(N4CC/C(=C\CN(C)C)C4=O)nc23)ccc1Oc1ccn2c(C)cnc2c1
72.3
Cc1cc(Nc2ncnc3ccc(N4CC/C(=C\CN(C)C)C4=O)nc23)ccc1Oc1ccn(C(F)F)c(=O)c1
23.1
CN(C)C/C=C1\CCN(c2cc3c(Nc4cc(F)c(Oc5ccn6ncnc6c5)cc4F)ncnc3cn2)C1=O
20.5

[1] Cc1cc(Nc2ncnc3ccc(N4CC/C(=C\CN(C)C)C4=O)cc23)ccc1Oc1ccc2c(c1)ncn2C
[2] Cc1cc(Nc2ncnc3cnc(N4CC/C(=C\CN5CCC5)C4=O)cc23)ccc1Oc1ccn2ncnc2c1
[3] CC1CN(c2cc3c(Nc4cc(F)c(Oc5ccc6c(c5)nnn6C)cc4F)ncnc3cn2)C(=O)/C1=C/CN(C)C (single isomer, unassigned) [Example S125, Enantiomer #2]
Order the records so the highest IC50 appears first and the lowest last. Put the labels in the order asked and list them. 3, 1, 2
(3: 76 nM, 1: 18.5 nM, 2: 8.26 nM)

----------
Listing of entries alongside the reported GI50.
# testedSystem: Ba/F3 ERBB2 A775_G776insYVMA (Homo sapiens, UniProt P04626, DUP772-775, cells depend on it)
# Sequence (P04626 with tags, fused parts or gaps DUP772-775): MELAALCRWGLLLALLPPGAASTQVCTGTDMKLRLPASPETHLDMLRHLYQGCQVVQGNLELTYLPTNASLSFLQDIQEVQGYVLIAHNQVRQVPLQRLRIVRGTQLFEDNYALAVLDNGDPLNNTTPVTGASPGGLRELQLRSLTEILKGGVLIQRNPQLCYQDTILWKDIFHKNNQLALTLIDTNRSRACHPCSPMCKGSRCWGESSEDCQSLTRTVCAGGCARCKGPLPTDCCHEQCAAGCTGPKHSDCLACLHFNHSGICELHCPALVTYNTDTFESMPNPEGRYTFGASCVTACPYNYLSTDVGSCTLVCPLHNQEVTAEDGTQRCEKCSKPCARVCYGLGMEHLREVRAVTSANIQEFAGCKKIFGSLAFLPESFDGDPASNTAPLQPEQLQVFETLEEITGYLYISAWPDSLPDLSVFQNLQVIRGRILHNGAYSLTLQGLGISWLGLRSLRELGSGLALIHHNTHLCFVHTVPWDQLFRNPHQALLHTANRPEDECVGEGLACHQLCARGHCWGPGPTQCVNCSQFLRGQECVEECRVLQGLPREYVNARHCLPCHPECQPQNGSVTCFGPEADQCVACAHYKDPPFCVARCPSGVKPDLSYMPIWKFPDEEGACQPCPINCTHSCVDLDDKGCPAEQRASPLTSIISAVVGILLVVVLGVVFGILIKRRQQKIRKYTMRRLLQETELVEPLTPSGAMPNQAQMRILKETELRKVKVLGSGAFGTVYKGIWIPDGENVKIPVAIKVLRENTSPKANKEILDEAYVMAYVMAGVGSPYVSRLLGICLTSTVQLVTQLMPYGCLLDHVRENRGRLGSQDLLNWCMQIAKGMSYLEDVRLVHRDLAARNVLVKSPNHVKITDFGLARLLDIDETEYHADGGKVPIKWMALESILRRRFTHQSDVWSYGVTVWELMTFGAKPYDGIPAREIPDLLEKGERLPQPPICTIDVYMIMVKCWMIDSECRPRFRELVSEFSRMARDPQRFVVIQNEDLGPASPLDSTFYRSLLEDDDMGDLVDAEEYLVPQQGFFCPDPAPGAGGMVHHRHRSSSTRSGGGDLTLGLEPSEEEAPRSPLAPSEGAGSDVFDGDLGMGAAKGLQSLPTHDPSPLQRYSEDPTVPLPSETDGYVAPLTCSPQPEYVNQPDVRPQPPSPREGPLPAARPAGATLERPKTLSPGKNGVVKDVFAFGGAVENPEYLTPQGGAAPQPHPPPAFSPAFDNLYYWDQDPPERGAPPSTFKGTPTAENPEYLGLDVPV
# protocolDescription: Cell viability assay, Ba/F3 ERBB2 A775_G776insYVMA
# Format: cell-based, mouse
# condition: Ba/F3 ERBB2 YVMA cells, cell viability, 72 hours, CellTiter Glo; Table B5; read-out: Ba/F3 ERBB2 YVMA, IC50
# Method: Cells were treated with compounds, and cell viability was measured as a metric of kinase inhibition. The Ba/F3 cell line is IL-3-dependent mouse cell line derived from the C3H mouse strain. Ba/F3 cell lines were engineered to express human ERBB2 or EGFR kinases, rendering the cells IL-3 independent. […] Similarly, Ba/F3 cell lines engineered to express EGFR, ERBB2, or ERBB2 mutants were grown, harvested, counted and seeded at 3000 cells per well in 96-well plates. […]
Reply with just the number (in nM).

Cc1cc(Nc2ncnc3cnc(N4CC/C(=C\CN5CCC5)C4=O)cc23)ccc1Oc1ccn2ncnc2c1 [Compound 102]
7.51
C=C1C(=O)N(c2ccc3ncnc(Nc4ccc(Oc5ccc6c(c5)ncn6C)c(C)c4)c3c2)C[C@@H]1C [Compound 41]
29
Cc1c(Oc2ccc3c(c2)ncn3C)ccc(Nc2ncnc3cnc(N4CC/C(=C\CN(C)C)C4=O)cc23)c1F [Compound 77]
3.61

Please give the measured GI50 for this compound: Cc1cc(Nc2ncnc3ccc(N4CC/C(=C\[C@@H](C)N(C)C)C4=O)nc23)ccc1Oc1ccn2ncnc2c1 [Compound 114] 24.3

Need GI50 of Cc1cc(Nc2ncnc3cnc(N4CC(C)/C(=C\CN(C)C)C4=O)cc23)ccc1Oc1ccc2c(c1)nnn2C (single isomer, unassigned) [Example S86, Enantiomer #1] , thanks. 2.59

Param item = C=C1CCN(c2ccc3ncnc(Nc4ccc(Cc5ccc6c(c5)ncn6C)c(C)c4)c3c2)C1=O [Compound 52] ; retrieve measured GI50. 21.9

----------
Known GI50 of a selection of compounds
# testedSystem: Ba/F3 ERBB2 A775_G776insYVMA (Homo sapiens, UniProt P04626, DUP772-775, cells depend on it)
# protocolDescription: Cell viability assay, Ba/F3 ERBB2 A775_G776insYVMA
# Type: cell-based, mouse
# condition: Ba/F3 ERBB2 YVMA cells, cell viability, 72 hours, CellTiter Glo; Table B5; read-out: Ba/F3 ERBB2 YVMA, IC50
# Method: Cells were treated with compounds, and cell viability was measured as a metric of kinase inhibition. The Ba/F3 cell line is IL-3-dependent mouse cell line derived from the C3H mouse strain. Ba/F3 cell lines were engineered to express human ERBB2 or EGFR kinases, rendering the cells IL-3 independent. […] Similarly, Ba/F3 cell lines engineered to express EGFR, ERBB2, or ERBB2 mutants were grown, harvested, counted and seeded at 3000 cells per well in 96-well plates. […]
Kindly provide the numeric value in nM only, without the unit symbol.

C=C1C(=O)N(c2cc3c(Nc4ccc(Oc5ccn6ncnc6c5)c(C)c4)ncnc3cn2)C[C@@H]1C
3.78
Cc1cc(Nc2ncnc3ccc(N4CC(C)C(=CCN(C)C)C4=O)nc23)ccc1Oc1ccn2ncnc2c1 (single isomer, unassigned) [Example S98, Enantiomer #1]
1.13
C=C1C(=O)N(c2ccc3ncnc(Nc4ccc(Oc5ccc6c(c5)ncn6C)c(C)c4)c3n2)C[C@H]1C
13.4

Fill in the blank: the reported GI50 of Cc1cc(Nc2ncnc3ccc(N4C(=O)C(=CCN(C)C)C5CC54)nc23)ccc1Oc1ccn2ncnc2c1 (single isomer, unassigned) [Example S108, Enantiomer #1] is ____. 54

Item CCc1ccc(Oc2ccc(Nc3ncnc4ccc(N5CC/C(=C\CN(C)C)C5=O)nc34)cc2C)cn1 has what recorded GI50? 5.37
